# test_system: T1, human GLP-1R (human), P43220
# T1 chain: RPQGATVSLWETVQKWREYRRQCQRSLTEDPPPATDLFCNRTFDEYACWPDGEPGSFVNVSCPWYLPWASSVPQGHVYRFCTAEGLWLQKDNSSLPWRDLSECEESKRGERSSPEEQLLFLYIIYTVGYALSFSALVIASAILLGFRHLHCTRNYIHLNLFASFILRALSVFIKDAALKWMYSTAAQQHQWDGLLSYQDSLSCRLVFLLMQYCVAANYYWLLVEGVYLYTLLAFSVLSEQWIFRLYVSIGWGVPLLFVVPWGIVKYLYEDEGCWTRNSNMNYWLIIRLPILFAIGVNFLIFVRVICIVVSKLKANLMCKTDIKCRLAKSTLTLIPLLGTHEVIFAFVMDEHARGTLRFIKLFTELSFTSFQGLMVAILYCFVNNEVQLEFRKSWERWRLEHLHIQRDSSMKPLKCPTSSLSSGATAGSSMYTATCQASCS
Non-standard residues stand in square brackets, D forms with d. Groups on a side chain read outwards from the residue. No end group written: not given here. *: point of attachment. NMeY = CN[C@@H](Cc1ccc(O)cc1)C(=O)O; Stearoyl = CCCCCCCCCCCCCCCCCC(=O)*; αMeF = C[C@](N)(Cc1ccccc1)C(=O)O; dIva = CC[C@@](C)(N)C(=O)O; Iva = CC[C@](C)(N)C(=O)O; Aib = CC(C)(N)C(=O)O

- binder: "Me-Y[Aib]EGTFISDYSIALDRIAQQNFVNW[Iva]LAQRPSSGAPPPSR (not fully specified (residue 1, C-terminus); ends and bridges not checked) [Compound 133]"
  Agonist activity (EC50, M): "> 1e-06 M"
- binder: "Y[Aib]EGTVVSLYSK([Gly-Gly-Gly-Gly-Stearoyl])[Aib]LDRQAQ[Aib]EFVRWLLAQR (ends and bridges not checked) [Compound 257]"
  Agonist activity (EC50, M): "> 1e-06 M"
- binder: "[NMeY][Aib]EGTFISDYSI[dIva]LDRIAQ[Aib]NFVNW[Iva]LAQRPSSGAPPPSR (ends and bridges not checked) [Compound 92]"
  Agonist activity (EC50, M): "> 1e-06 M"
- binder: "[NMeY][Aib]EGTFISDYSIALDRIHQQD[αMeF]VNWLLAQRPSSGAPPPSR (not fully specified (N-terminus, C-terminus); ends and bridges not checked) [Compound 141]"
  Agonist activity (EC50, M): "> 1e-06 M"
